# system: T1, cynomolgus BLyS (full length, arginine to histidine at position 132) on CHO-K1 cells (cynomolgus, UniProt Q9Y275 1-285 (human entry))
# T1 construct: also called cyno BLyS; CHO-K1 cynoBLyS
# T1 chain: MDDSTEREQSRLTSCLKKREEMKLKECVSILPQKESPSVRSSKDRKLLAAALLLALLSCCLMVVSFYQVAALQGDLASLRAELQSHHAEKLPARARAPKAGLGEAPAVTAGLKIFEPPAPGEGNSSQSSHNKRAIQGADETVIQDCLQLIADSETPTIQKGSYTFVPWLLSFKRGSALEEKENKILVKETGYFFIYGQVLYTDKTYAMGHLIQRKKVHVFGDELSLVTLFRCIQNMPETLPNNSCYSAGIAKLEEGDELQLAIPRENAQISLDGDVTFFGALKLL
# test method notes: flow cytometry, CHO-K1 cynoBLyS cells, antibody 0.0213 nM
Below, each entry is listed with its recorded MFI.
Use MFI as the unit, but write only the number.

Example entries begin here.
binder	MFI / MFI
35E6F7C3 (antibody, V domains shown, Mouse hybridoma monoclonal antibody purified on Protein G) VH: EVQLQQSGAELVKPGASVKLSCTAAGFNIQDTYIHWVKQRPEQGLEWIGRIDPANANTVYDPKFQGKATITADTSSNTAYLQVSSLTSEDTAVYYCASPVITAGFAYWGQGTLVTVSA VL: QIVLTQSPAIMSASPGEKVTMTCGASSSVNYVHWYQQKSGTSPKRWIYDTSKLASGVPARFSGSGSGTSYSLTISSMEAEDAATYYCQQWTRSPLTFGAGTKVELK	66.3
67A2E1D10 (antibody, V domains shown, Mouse hybridoma monoclonal antibody purified on Protein G) VH: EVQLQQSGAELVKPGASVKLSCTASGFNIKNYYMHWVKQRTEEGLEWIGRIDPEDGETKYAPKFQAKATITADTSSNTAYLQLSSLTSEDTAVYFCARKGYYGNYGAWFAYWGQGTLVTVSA VL: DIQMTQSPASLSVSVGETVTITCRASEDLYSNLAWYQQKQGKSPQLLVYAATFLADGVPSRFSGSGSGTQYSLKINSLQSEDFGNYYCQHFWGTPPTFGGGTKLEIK	35.3
97A3C2H4 (antibody, V domains shown, Mouse hybridoma monoclonal antibody purified on Protein G) VH: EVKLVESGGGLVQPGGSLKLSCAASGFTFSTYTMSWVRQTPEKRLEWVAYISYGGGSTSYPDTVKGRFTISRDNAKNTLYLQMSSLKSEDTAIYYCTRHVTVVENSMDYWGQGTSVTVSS VL: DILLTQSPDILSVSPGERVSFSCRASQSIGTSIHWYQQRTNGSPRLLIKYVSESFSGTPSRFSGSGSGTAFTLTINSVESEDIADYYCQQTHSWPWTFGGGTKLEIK	120

Reported MFI for 89A2G5E7 (antibody, V domains shown, Mouse hybridoma monoclonal antibody purified on Protein G) VH: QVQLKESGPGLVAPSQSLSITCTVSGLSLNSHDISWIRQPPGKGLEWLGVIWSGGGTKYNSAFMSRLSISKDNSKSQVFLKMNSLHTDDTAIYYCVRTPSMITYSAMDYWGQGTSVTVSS VL: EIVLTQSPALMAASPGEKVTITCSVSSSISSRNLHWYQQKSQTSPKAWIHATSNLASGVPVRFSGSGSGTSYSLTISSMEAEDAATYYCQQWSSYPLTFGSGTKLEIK : what is it?
53.6

Reported MFI for 20D1B6E9E5 (antibody, V domains shown, Mouse hybridoma monoclonal antibody purified on Protein G) VH: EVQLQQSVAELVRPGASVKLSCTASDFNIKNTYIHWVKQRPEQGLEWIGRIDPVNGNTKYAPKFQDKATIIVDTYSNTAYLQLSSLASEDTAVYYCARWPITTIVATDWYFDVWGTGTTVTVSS VL: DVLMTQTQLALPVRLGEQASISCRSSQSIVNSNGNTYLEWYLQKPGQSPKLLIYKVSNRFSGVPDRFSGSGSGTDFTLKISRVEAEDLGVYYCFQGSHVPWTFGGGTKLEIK : what is it?
118
